assay: yeast display, Sf9 membrane polyspecificity reagent, FACS + sequencing; frameworks hold sequencing errors
READOUT_KIND: polyreactivity (PSR sort gate)

Worked cases, answers included:
- QVQLVESGGGLVQAGGSLRLSCAASGFTFPHYAMGWYRQAPGKERELVAAISWSGGNTYYADSVKGRFTISRDNAKNTVYLQMNSLKPEDTAVYYCAKGYSSHYWWAYDSWGQVTQVTVSS: high polyreactivity
- QVQLVESGGGLVQAGGSLRLSCAASGSIFQYNAMGWYREAPGHEWELVAVISRSGSRTYYADSVKGRFTISRDNAKNTVYLQMNSLKPEDTAVYYCAADIWFYTYYGYDYWGQGTQVTVSS: high polyreactivity
- QVQLVESGGGLVQAGGSLRLSCAASGFTFYTYALGWYRQAPGKEWELVAAITSGGGTYYADSVKGRFTISRDNAKNTVYLQMNSLKPEDTAVYYCNRASRRGYYYPYNYWGQGTQVTVSS: high polyreactivity
- QVQLVESGGGLVQAGGSLRLSCAASGIIFLANAMGWYRQAPGKERELVAAISLDGGRTYYADSVKGRFTISRDNAKNTVFLQMNSLKPEDTAVYYCAADYGYVILYEYWGQGTQVTVSS: low polyreactivity

Consider the additional sequence presented here.
q: Please give the measured polyreactivity (PSR sort gate) for this sequence: QVQLVESGGGFVQAGGSHRLSCAASGRIFSCNAMGWYRQAPGKERELVAAITWRGTSTYYADSVKGRFTISRDNAKNTVYLQMNSLKPEDTAVYYWNGDYYYPADGRHYHYDYWGQGTQVTVSS
a: low polyreactivity

----------
experiment: yeast display, Sf9 membrane polyspecificity reagent, FACS + sequencing; frameworks hold sequencing errors
READOUT_KIND: polyreactivity (PSR sort gate)

* QVQLVESGGGLVQAGGSLRLSCAASGPTFGVNAMGWYRQAPGKERELVAVISSTGSTNYADSVKGRFTISRDNAKNTVYLQMNSLKPEDTAVYYCAVGPNSVGNRSYGFDYWGQGTQVTVSS | low polyreactivity
* QVQLVESGGGLVQAGGSLRLSCAASGRTFYRNAMGWYRQAPGKERELVAAISWRGGSTFYADSVKGRFTISRDNAKNTVYLQMNSLKPEDTAVYYCNAGSNSFSRVEYWGQGTQVTVSS | low polyreactivity

----------
assay: yeast display, Sf9 membrane polyspecificity reagent, FACS + sequencing; frameworks hold sequencing errors
READOUT_KIND: polyreactivity (PSR sort gate)

Observe how each entry below is paired with its result.
• QVQLVESGGGLVQAGGSLRLSCAASGIIVEYYTMGWKRQAPGKERELVASITYDGDTTYYADSVKGRFTISRDNAKITVYLQMNSRKPEDTAVYYCAADYYYVYSSFGHYYWGQGTQVTVSS = low polyreactivity
• QVQLVESGGGLVQAGGSLRLSCAASGRIFVYYAMGWYRQAPGKERELVAAITYSVDSTYYADSVKGRFTISRDNAKNTVYLQMNSLKPEDTAVYDCATDVDWAYGYQYEYWGQGTQVTVSS = low polyreactivity
• QVQLVESGGGLVQAGGSLRLSCGASGRTFSYYPMGWYRQAPGKERELVAAITSSGGRTYYADSVKGRFTISRDNAKNTVYLQMNSLKPEDTAVYYCAKELVKRYYWGQGTQVTVSS = high polyreactivity
• QVQLVESGGGLVQAGGSLRLSCAASGFTFRYYAMGWYRQAPGKEREFVAAITYNGVSTYYADSVKGRFTISRDNAKNTVYLQMNSLKPEDTAVYYCAAGWYYYARPRVYNAREYYYWGQGTQVTVSS = high polyreactivity

Consider the record given below.
q: Fill in the blank: the reported polyreactivity (PSR sort gate) of QVQHVESGGGLVQAGGSLRLSCAASGLTFKANAMGWYRQAPGKERELVAAITWSGTSTYYADSVKGRFTISRDNAKNTVYLQMNRLKPEDTAVYYCNKPYDVWYHDYDYWGQGTQVTVSS is ____.
a: low polyreactivity

Where do these numbers come from? They come from the nanobody polyreactivity screen of Harvey et al. (2022).
